- Test system: UO-31 renal
- assay_protocol: NCI-60 one-dose screen, 48 h (100 = growth as untreated, 0 = no growth, -100 = all killed)
- recorded_conditions: 10 µM unless noted
The panel holds about 83,000 compounds, 20% with a hit somewhere; the sample as a whole holds those more often. Active and inactive are the calls of the source. How the source made its calls: active means growth percent below 10; inactive means the rest.
recorded_metric: growth

compound: O=C1CCCCC1CN1CCCCC1 (stereo not given)
growth: 88.7% (inactive)

compound: C/C(=C(\c1ccc(OCCN2CCOCC2)cc1)c1ccc(OC(=O)Cc2ccccc2)cc1)c1ccc(Cl)cc1
growth: 85.5% (inactive)

compound: CC(Oc1ccc(-c2ccccc2)cc1)C(=O)O (stereo not given)
growth: 91.8% (inactive)

Would you be so kind as to report growth for each listed record?
1. CC[C@H](C)[C@H](NC(=O)[C@H]1CCCCN1C)C(=O)N(C)[C@H](CCc1nc(C(=O)N[C@@H](Cc2ccccc2)C[C@H](C)C(=O)O)cs1)C(C)C
2. Cc1cc(Br)c([N+](=O)[O-])cc1[N+](=O)[O-]

["49% (inactive)", "114% (inactive)"]

====

- System: MDA-MB-231 breast
- assay_protocol: NCI-60 one-dose screen, 48 h (100 = growth as untreated, 0 = no growth, -100 = all killed)
- recorded_conditions: 10 µM unless noted
This is part of a sample that, as a whole, favours compounds with a hit. Of some 83,000 tested, about 20% had one in any assay.
Field: growth. Provide a value for each of the compounds that follow.
One number for each entry, in %.

compound: O=[N+]([O-])c1cc(Cl)c(Cl)c([N+](=O)[O-])c1Cl
growth [%]: 91.8

compound: CCOC(=O)c1ccccc1C(=O)OCC
growth [%]: 93.3

compound: O=NN(c1ccccc1)c1ccccc1
growth [%]: 98.9

compound: c1ccc2c(c1)sc1ccccc12
growth [%]: 93.8

Would you be so kind as to report growth for each listed record?
1. C[C@]12CCc3sc(Nc4ccc(OC(F)(F)F)cc4)nc3C1=CC[C@@H]1[C@@H]2CC[C@]2(C)C(=O)CC[C@@H]12
2. CCOC(=O)c1cncn1C(C)c1ccccc1 (stereo not drawn)

73.5
112

====

- Tested on: A549/ATCC NSCLC
- assay_protocol: NCI-60 one-dose screen, 48 h (100 = growth as untreated, 0 = no growth, -100 = all killed)
- recorded_conditions: 10 µM unless noted
- Method: Growth inhibition of the A549/ATCC human Non-Small Cell Lung tumor cell line is measured as a screen for anti-cancer activity. Cells are grown in 96 well plates and exposed to the test compound for 48 hours. Compounds are tested at a single concentration, which is 10^-5 M for most compounds. The reported endpoint is percent growth (GI% or GIPRCNT), where numbers from 0 - 100% represent growth inhibition, and numbers from -100% - 0 represent cell death. […]
About 83,000 compounds went through this panel and 20% of them were active in at least one assay; those are over-represented in the sample as a whole. Active and inactive are the calls of the source. Rule for the calls: active = growth percent below 10; inactive = the rest.
recorded_metric: growth

These recorded examples may help you get a feel for the data.
compound: CC1=CC(=O)CCC12CCOC2=O (configuration not stated)
growth: 97.8% (inactive)

compound: CC1=C([Te]c2ccccc2)C(=O)c2ccccc2C1=O
growth: -66.1% (active)

compound: C[C@]12CCc3sc(Nc4ccc(F)cc4)nc3C1=CC[C@@H]1[C@@H]2CC[C@]2(C)C(=O)CC[C@@H]12
growth: 79.5% (inactive)

Would you be so kind as to report growth for each listed record?
1. CCOC(=O)c1cncn1C(C)c1ccccc1 (configuration not stated)
2. C[N+]1(C)CCCC1c1cccnc1 (configuration not stated)
3. CC(=O)c1cccc(S(=O)(=O)F)c1
4. OCCNC1CCCCC1

["103% (inactive)", "95.9% (inactive)", "98.6% (inactive)", "106% (inactive)"]

Would you be so kind as to report growth for each listed record?
1. COC12CC3(C)C(C4=CC(=O)OC4)CCC3(O)C3CCC4=CC(=O)CCC4(CO1)C32 (configuration not stated)
2. CC[C@H](C)[C@H](NC(=O)[C@H]1CCCCN1C)C(=O)N(C)[C@H](C[C@@H](OC(C)=O)c1nc(C(=O)N[C@@H](Cc2ccccc2)C[C@H](C)C(=O)O)cs1)C(C)C
3. Cc1ccc(NC2=N[C@]34CC(=O)CC[C@]3(C)[C@H]3CC[C@]5(C)C(=O)CC[C@H]5[C@@H]3C[C@@H]4S2)c(C)c1
4. CCCN1C(=O)NC(=O)C(CC)(N2C(=O)c3c(F)c(F)c(F)c(F)c3C2=O)C1=O (configuration not stated)

1. 98.8% (inactive)
2. 10.2% (inactive)
3. 61.1% (inactive)
4. -64.7% (active)

Would you be so kind as to report growth for each listed record?
1. COc1cc(C=C2C(=O)NC(=O)NC2=O)ccc1O
2. c1ccc(CCN2CCCCC2)nc1
3. COC(=O)C12C3C4C1C1C2C3C41NC(=O)c1csc([C@@H](C[C@H](C(C)C)N(C)C(=O)[C@@H](NC(=O)[C@H]2CCCCN2C)C2CC2)OC(C)=O)n1 (some centres not stated)
4. CCC1(CCSC#N)C(=O)NC(=O)NC1=O
5. CSc1cc(/C=C(\C)[C@@H]2C[C@@H]3O[C@]3(C)CCC[C@H](C)[C@H](O)[C@@H](C)C(=O)C(C)(C)[C@@H](O)CC(=O)O2)n(CCNC(=O)OC(C)(C)C)n1
6. COc1ccc2c(c1)C1(C)CCN(C)CC(C1)C2O (configuration not stated)
7. C[C@]12CCc3sc(Nc4ccc(O)cc4)nc3C1=CC[C@@H]1[C@@H]2CC[C@]2(C)C(=O)CC[C@@H]12
8. CC12CCC3C(CCC4CC(O)CCC43C)C1CCC2=O (configuration not stated)

["102% (inactive)", "95.7% (inactive)", "13% (inactive)", "106% (inactive)", "55.2% (inactive)", "95.1% (inactive)", "79.3% (inactive)", "94.2% (inactive)"]
